target: Human CB1 Receptor-1 (hCB1) (Homo sapiens (Human))
Sequence (P21554 whole entry): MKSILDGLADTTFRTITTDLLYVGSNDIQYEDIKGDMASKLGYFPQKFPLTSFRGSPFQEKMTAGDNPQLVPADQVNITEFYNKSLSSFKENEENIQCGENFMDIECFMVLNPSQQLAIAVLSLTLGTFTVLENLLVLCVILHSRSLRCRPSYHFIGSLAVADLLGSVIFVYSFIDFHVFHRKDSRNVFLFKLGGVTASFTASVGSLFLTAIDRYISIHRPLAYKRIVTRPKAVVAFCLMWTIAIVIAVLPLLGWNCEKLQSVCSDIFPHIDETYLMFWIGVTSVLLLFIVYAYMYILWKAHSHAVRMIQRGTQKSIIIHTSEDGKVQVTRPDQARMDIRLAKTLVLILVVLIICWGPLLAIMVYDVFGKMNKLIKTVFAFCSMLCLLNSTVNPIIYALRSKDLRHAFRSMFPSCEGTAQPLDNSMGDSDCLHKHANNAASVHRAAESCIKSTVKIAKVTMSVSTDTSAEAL
experiment.notes: hCB1 Gai cyclic AMP (cAMP) TR-FRET assay, antagonism of EC80 CP55940 with forskolin
protocol.conditions: hCB1 cells, 30 min pre-incubation
pIC50: −log10 of the molar value.
quantity.measured: pIC50

# example entries with known answers
QUERY: Sample NS(=O)(=O)N1CC(N/C(=N\S(=O)(=O)c2ccc(Cl)cc2)N2C[C@H](c3ccccc3)C(c3ccc(Cl)cc3)=N2)C1 [Compound 191] — what was its pIC50?
RESULT: > 7.00

QUERY: Sample C[C@@H](CN/C(=N\S(=O)(=O)c1ccc(C(F)(F)F)cc1)N1C[C@H](c2ccccc2)C(c2ccc(Cl)cc2)=N1)S(N)(=O)=O [Compound 18] — what was its pIC50?
RESULT: > 7.00

QUERY: Sample NS(=O)(=O)[C@H]1CC[C@@H](N/C(=N/S(=O)(=O)c2ccc(Cl)cc2)N2C[C@H](c3ccccc3)C(c3ccc(F)cc3)=N2)C1 [Compound 147] — what was its pIC50?
RESULT: 6.30 to 7.00

QUERY: Sample C[C@H](CN/C(=N\S(=O)(=O)c1ccc(F)cc1)N1C[C@H](c2ccccc2)C(c2ccc(F)cc2)=N1)S(N)(=O)=O [Compound 53] — what was its pIC50?
RESULT: > 7.00

QUERY: Sample NS(=O)(=O)[C@@H]1CC[C@H](N/C(=N/S(=O)(=O)c2ccc(Cl)cc2)N2C[C@H](c3ccccc3)C(c3ccc(Cl)cc3)=N2)C1 [Compound 143] — what was its pIC50?
RESULT: > 7.00

Consider the record given below.
QUERY: Sample CNS(=O)(=O)CCN/C(=N\S(=O)(=O)c1ccc(Cl)cc1)N1C[C@H](c2ccccc2)C(c2ccc(Cl)cc2)=N1 [Compound 169] — what was its pIC50?
RESULT: > 7.00
